Target: Induced myeloid leukemia cell differentiation protein Mcl-1 (Homo sapiens)
Experiment: Mcl-1/Noxa binding inhibitor potency, dose response, biochemical, TR-FRET (AID 1417)
Conditions: Mcl-1/Noxa peptide interaction, cell-free TR-FRET (terbium/rhodamine), 2 h; measured here: absolute IC50
Assignment: determine reported IC50 for the given molecules.

// input: 3 molecules below; output: IC50 for each
1. O=C(NCCCO)c1ccc2nc(-c3ccco3)c(-c3ccco3)nc2c1
2. COc1cc(/C=C2/C(=O)c3cccc([N+](=O)[O-])c3C2=O)c(Br)cc1O
3. CCOc1ccccc1NC(=O)/C=C/C(N)=O

1: > 54 µM; 2: < 0.4 µM; 3: > 54 µM
